Assay: self-splicing fitness, log relative to wild type (ln ratio); higher = more splicing; Tetrahymena group I intron in knt gene, E. coli kanamycin selection, DiMSum; sequences stand for … in CUCUCU…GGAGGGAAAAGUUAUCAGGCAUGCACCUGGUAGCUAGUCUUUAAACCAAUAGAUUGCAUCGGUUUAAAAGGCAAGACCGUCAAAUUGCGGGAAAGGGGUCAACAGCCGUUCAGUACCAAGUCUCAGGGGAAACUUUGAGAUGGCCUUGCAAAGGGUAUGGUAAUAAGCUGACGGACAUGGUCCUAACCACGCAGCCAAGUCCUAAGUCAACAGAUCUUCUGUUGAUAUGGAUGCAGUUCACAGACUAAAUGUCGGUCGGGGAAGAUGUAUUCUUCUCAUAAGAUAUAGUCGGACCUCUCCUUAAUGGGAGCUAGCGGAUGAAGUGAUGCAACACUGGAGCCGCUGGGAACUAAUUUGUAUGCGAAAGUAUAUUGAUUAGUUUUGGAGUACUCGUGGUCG;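 also: selection with 25 µg/mL kanamycin versus none on LB agar overnight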
Conditions: 30 °C
Listed here are sequences together with their documented self-splicing fitness (ln).
Please state the value as a number alone, without comment.

See these solved cases before continuing.
monomer-sequence: AGCUAGCAAUAUUACGUCAU
measured-result: -2.65
//
monomer-sequence: ACCGAGCAAUAUUACGCGUG
measured-result: -1.41
//
monomer-sequence: UAUCAGCAAUAUUACGCUGU
measured-result: -3.25
//
monomer-sequence: GGGAAGCAAUAUUACGUAAU
measured-result: -1.88
//
monomer-sequence: UCAGAGCAAUAUUACGAUCU
measured-result: -3.62

The recorded self-splicing fitness (ln) for entry GGCUAGCAAUAUUACGUAAG equals -1.64

The recorded self-splicing fitness (ln) for entry CCAGAGCAAUAUUACGCAUA equals -3.74

====

Assay: self-splicing fitness, log relative to wild type (ln ratio); higher = more splicing; Tetrahymena group I intron in knt gene, E. coli kanamycin selection, DiMSum; sequences stand for … in CUCUCU…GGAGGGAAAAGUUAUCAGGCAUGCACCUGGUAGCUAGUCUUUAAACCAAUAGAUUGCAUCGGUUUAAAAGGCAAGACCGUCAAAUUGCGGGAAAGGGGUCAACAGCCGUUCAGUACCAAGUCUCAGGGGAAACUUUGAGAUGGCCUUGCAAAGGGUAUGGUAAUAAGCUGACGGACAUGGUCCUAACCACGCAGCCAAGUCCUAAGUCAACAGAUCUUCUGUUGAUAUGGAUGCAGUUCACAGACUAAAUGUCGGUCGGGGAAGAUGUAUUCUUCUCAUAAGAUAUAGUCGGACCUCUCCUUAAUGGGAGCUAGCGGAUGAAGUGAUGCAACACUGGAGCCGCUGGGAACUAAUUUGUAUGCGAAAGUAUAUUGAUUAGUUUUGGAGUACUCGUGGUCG
Details: 37 °C
reported-property: self-splicing fitness (ln)

Here is how some sequences turned out for self-splicing fitness (ln).
monomer-sequence: GAGGAGCAAUAUUACGGAGC
measured-result: -0.748
--
monomer-sequence: AAUAAGCAAUAUUACGAAUC
measured-result: -0.866
--
monomer-sequence: UGGGAGCAAUAUUACGUGGA
measured-result: -2.11
--
monomer-sequence: UUGAAGCAAUAUUACGCCCG
measured-result: 0.251
--
monomer-sequence: UCCAAGCAAUAUUACGUAGU
measured-result: -0.483

The reported self-splicing fitness (ln) of the sequence CAUUAGCAAUAUUACGGUAC was -2.07

Form field self-splicing fitness (ln), entry AGCGAGCAAUAUUACGGGCG : -0.431

# self-splicing fitness (ln) (sequence: GCUAAGCAAUAUUACGAUGU ) is -0.496

// sample UUAAAGCAAUAUUACGUCUU , its self-splicing fitness (ln) was -0.988

Entry UAUUAGCAAUAUUACGAAAC , self-splicing fitness (ln) reported as -2.53

self-splicing fitness (ln) reading for CACAAGCAAUAUUACGCCUA : -0.204

What the record says about UGUGAGCAAUAUUACGUUGA : self-splicing fitness (ln) is -2.11

Summary for this sequence, AGACAGCAAUAUUACGGGCA : self-splicing fitness (ln) is -0.503

====

Listed here: items and their measured self-splicing fitness (ln).
Assay: self-splicing fitness, log relative to wild type (ln ratio); higher = more splicing; Tetrahymena group I intron in knt gene, E. coli kanamycin selection, DiMSum; sequences stand for … in CUCUCU…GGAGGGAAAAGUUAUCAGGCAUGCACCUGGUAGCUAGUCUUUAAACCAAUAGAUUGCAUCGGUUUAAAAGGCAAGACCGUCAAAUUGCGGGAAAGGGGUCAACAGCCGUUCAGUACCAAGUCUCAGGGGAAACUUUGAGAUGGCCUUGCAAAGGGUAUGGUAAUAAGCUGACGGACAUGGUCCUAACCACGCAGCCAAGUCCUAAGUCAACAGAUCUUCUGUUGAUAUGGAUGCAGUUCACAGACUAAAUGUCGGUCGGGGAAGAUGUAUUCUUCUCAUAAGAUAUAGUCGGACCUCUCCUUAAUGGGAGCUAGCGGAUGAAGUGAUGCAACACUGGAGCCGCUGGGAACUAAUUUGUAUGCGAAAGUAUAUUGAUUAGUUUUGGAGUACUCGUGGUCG
Conditions: 37 °C
Reply briefly: the number, and no unit.

Just so you know, measured self-splicing fitness (ln) for CCAUAGCAAUAUUACGUUCU came out at -3.4

Looking up UGCGAGCAAUAUUACGGCGU , I found its self-splicing fitness (ln) recorded as -0.48

# sequence CGCAAGCAAUAUUACGUCAA ; its self-splicing fitness (ln) = -2.93

Record GCAUAGCAAUAUUACGAGUU . Reported self-splicing fitness (ln): -1.33

Entry UGCUAGCAAUAUUACGUACG ; self-splicing fitness (ln) = 0.0248

Measured self-splicing fitness (ln) of UAUCAGCAAUAUUACGUACG : 0.404

The recorded self-splicing fitness (ln) for GCGGAGCAAUAUUACGUUAC is -2.36

The sequence AACCAGCAAUAUUACGCUCC showed self-splicing fitness (ln) equal to -0.0692

For GCGAAGCAAUAUUACGCUUG the sequence record lists self-splicing fitness (ln) as -1.56

// field: self-splicing fitness (ln); key: AUAUAGCAAUAUUACGUUCA ; value = -0.707

The recorded self-splicing fitness (ln) for AAUGAGCAAUAUUACGACCA is -2.22

// CCAAAGCAAUAUUACGCCAA : self-splicing fitness (ln) value = -1.96

Value of measured self-splicing fitness (ln) for the entry GACCAGCAAUAUUACGUCAU : -0.747

Form: sequence = UCACAGCAAUAUUACGUUCG ; self-splicing fitness (ln) = -0.209

Lookup result for CGGCAGCAAUAUUACGUCAU ; measured self-splicing fitness (ln): -1.09

Recorded result, GAGGAGCAAUAUUACGAUCG , self-splicing fitness (ln): -1.2

Lab note: AGACAGCAAUAUUACGCUUA gave self-splicing fitness (ln) of -0.083

sequence AUGGAGCAAUAUUACGGCAC , self-splicing fitness (ln) observed: -0.0162

Measured self-splicing fitness (ln), CAAUAGCAAUAUUACGGAAG : -0.459

// sample GUGGAGCAAUAUUACGACUA , its self-splicing fitness (ln) was -0.509

Given item GUGUAGCAAUAUUACGACAC , the value recorded as its self-splicing fitness (ln) is -2.17

====

Assay: self-splicing fitness, log relative to wild type (ln ratio); higher = more splicing; Tetrahymena group I intron in knt gene, E. coli kanamycin selection, DiMSum; sequences stand for … in CUCUCU…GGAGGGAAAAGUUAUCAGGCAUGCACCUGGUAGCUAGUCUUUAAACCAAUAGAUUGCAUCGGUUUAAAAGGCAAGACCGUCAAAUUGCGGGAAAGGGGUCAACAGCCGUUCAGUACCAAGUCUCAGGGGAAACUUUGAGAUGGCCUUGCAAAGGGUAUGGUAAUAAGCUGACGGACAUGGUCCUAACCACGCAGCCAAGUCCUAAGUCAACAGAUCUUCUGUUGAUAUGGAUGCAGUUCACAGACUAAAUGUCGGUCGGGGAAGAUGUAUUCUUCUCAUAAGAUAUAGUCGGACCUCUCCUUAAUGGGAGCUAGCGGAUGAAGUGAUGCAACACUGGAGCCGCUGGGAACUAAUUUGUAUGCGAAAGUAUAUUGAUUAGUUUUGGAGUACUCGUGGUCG
Details: 37 °C
reported-property: self-splicing fitness (ln)
Answer with the value's number alone.

Below: 10 sequences and their reported self-splicing fitness (ln).
monomer-sequence: CUCCAGCAAUAUUACGGCAG
reported-property: self-splicing fitness (ln)
measured-result: -1.75
//
monomer-sequence: UGACAGCAAUAUUACGAUCU
reported-property: self-splicing fitness (ln)
measured-result: 0.277
//
monomer-sequence: GUACAGCAAUAUUACGGCCA
reported-property: self-splicing fitness (ln)
measured-result: -1.13
//
monomer-sequence: GCGCAGCAAUAUUACGUCCU
reported-property: self-splicing fitness (ln)
measured-result: 0.126
//
monomer-sequence: CGACAGCAAUAUUACGGGUC
reported-property: self-splicing fitness (ln)
measured-result: -3.14
//
monomer-sequence: AGAAAGCAAUAUUACGUGAU
reported-property: self-splicing fitness (ln)
measured-result: -1.25
//
monomer-sequence: CGAGAGCAAUAUUACGGUGC
reported-property: self-splicing fitness (ln)
measured-result: -3.43
//
monomer-sequence: UUAUAGCAAUAUUACGGGUU
reported-property: self-splicing fitness (ln)
measured-result: -1.13
//
monomer-sequence: CCACAGCAAUAUUACGGACC
reported-property: self-splicing fitness (ln)
measured-result: -1.54
//
monomer-sequence: GACGAGCAAUAUUACGAACU
reported-property: self-splicing fitness (ln)
measured-result: -0.278

What the record says about GAAAAGCAAUAUUACGAUGA : self-splicing fitness (ln) is -0.295

get_value(item= AAAUAGCAAUAUUACGAUGG , readout=self-splicing fitness (ln)) returns -1.97

The value of self-splicing fitness (ln) measured for the sequence ACGGAGCAAUAUUACGGGUU turned out to be -3.6

Recorded self-splicing fitness (ln) (sequence GAGCAGCAAUAUUACGGUAG ): -3.24

So for CAAGAGCAAUAUUACGCGCU , the logged self-splicing fitness (ln) turned out to be -2.34
